target-desc: CD80 expressed on cells (Homo sapiens)
Sequence (chain, as listed by the source): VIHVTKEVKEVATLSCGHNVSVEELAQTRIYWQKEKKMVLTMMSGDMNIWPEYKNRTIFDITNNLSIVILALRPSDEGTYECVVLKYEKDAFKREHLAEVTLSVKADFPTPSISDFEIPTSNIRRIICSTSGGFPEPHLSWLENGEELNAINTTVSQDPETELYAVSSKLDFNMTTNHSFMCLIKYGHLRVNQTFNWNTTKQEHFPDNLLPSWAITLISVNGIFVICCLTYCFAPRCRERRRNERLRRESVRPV
assay: flow cytometry, cells expressing CD80
recorded-endpoint: Fold Change Compared to WT PD-L1
The reply should be a number, written without any unit.

Task: Quick one: Fold Change Compared to WT PD-L1 of variant PD-L1 ECD-Fc Y10F, M18V, S99G, Q138R, T203A (Fc fusion) FTVTVPKDLFVVEYGSNVTIECKFPVEKQLDLAALIVYWEMEDKNIIQFVHGEEDLKVQHSSYRQRARLLKDQLSLGNAALQITDVKLQDAGVYRCMIGYGGADYKRITVKVNAPYNKINQRILVVDPVTSEHELTCRAEGYPKAEVIWTSSDHQVLSGKTTTTNSKREEKLFNVTSTLRINTTTNEIFYCTFRRLDPEENHAAELVIPELPLAHPPNER ?
Output: 3.1

Source listed as patent US20230381229A1.
